Target: progesterone receptors (PR) (Homo sapiens)
Sequence (P06401 whole entry): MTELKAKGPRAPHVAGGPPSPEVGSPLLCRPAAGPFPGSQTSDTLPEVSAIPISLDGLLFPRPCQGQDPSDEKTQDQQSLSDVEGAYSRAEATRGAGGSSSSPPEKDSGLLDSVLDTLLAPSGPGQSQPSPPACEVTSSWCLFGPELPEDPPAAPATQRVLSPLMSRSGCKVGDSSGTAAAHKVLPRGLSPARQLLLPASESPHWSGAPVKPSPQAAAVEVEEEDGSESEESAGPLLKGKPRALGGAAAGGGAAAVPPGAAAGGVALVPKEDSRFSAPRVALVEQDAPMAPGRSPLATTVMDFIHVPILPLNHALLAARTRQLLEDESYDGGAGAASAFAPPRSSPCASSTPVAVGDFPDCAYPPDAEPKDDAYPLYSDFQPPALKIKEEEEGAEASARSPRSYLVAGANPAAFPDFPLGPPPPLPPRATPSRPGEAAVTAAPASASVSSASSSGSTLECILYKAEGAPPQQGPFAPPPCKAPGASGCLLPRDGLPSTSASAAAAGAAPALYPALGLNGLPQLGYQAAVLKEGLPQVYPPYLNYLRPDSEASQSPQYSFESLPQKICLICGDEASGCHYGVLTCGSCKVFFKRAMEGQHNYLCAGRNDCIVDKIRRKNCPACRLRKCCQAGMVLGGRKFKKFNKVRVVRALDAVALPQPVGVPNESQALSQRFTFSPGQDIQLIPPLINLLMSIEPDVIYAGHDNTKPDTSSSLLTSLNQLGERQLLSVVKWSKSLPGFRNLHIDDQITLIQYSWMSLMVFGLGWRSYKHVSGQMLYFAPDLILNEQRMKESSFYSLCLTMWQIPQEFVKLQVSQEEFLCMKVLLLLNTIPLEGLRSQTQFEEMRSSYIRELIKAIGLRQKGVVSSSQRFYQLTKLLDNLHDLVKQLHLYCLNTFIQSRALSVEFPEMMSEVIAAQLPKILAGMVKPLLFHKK
Test: Binding to other steroid hormone receptors with recombinantly produced receptors: progesterone receptor
Source text: The binding of substances to the glucocorticoid receptor (GR) and other steroid hormone-receptors (mineral corticoid receptors (MR), progesterone receptors (PR) and androgen receptors (AR)) is examined with the aid of recombinantly produced receptors. Cytosol preparations of Sf9 cells, which had been infected with recombinant baculoviruses that code for the GR, are used for the binding tests. […]
pIC50: −log10 of the molar value.
valueKind: pIC50

Task item: Look up pIC50 of Cc1ncc2c(NC3c4cc(C)c(F)c(O)c4C(C)(C)CC3(O)C(F)(F)F)ccc(F)c2n1 (racemic) and report it.
Reply: < 6.00

* * *

Molecular target: UniProtKB P04150
Sequence (P04150 1-777): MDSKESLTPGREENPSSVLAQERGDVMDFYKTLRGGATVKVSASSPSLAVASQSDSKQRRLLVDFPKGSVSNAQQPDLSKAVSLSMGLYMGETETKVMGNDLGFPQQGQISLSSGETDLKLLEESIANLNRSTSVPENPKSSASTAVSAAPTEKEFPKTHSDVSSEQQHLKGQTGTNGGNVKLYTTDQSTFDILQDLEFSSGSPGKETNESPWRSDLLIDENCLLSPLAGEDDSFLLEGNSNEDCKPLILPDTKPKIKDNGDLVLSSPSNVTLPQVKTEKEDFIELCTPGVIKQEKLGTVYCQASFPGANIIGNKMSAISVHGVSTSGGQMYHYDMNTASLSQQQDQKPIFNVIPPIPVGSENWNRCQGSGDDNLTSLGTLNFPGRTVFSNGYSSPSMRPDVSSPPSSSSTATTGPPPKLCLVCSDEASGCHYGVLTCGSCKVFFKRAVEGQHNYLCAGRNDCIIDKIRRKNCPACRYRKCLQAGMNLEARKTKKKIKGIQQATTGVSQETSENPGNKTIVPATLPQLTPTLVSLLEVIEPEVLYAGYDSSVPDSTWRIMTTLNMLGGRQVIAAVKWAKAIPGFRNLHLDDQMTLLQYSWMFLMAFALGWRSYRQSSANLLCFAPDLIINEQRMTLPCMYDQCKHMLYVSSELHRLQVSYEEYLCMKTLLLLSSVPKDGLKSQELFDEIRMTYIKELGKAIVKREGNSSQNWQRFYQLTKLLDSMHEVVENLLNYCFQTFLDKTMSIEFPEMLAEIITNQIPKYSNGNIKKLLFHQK
Assay: Binding to the glucocorticoid receptor, recombinantly produced receptor, cytosol preparations of Sf9 cells, reference [3H]-dexamethasone
Conditions: recombinant GR
valueKind: IC50 (nM)
The response must be a number in nM with no trailing unit.

Task item: Provide only the value of recorded IC50 for Cc1ncc2c(NC3c4cc(C)c(F)c(O)c4C(C)(C)CC3(O)C(F)(F)F)ccc(F)c2n1 (racemic)
Reply: 86
